- method: Clearance in rat at 1 mg/kg, iv
- Type: ADME, organism-based
- Set-up: dose 1 mg/kg, route intravenous
- study_conditions: in vivo
measure: clearance (mL/min/kg)

{"columns": ["molecular_string", "measure", "unit_string", "reading"],
 "data": [
  ["O=C1NN=C(c2ccc(OC3CCN(C4CCC4)CC3)cc2)[C@H]2C[C@@H]12", "clearance", "mL/min/kg", 17]
]}

###

- method: Terminal half life in monkey at 1 mg/kg, iv
- Assay type: ADME, organism-based, Macaca mulatta
- Set-up: dose 1 mg/kg, route intravenous
- study_conditions: rhesus monkey, in vivo, read-out: beta t1/2 (converted)

{"columns": ["molecular_string", "half-life"],
 "data": [
  ["O=C1NN=C(c2ccc(OC3CCN(C4CCC4)CC3)cc2)[C@H]2C[C@@H]12", "8.6 h"]
]}

###

- method: Ratio of drug uptake in brain to plasma in dog at 5 mg/kg, po after 6 hrs
- Format: ADME, organism-based, Canis lupus familiaris
- Design: dose 5 mg/kg, route oral
- study_conditions: read-out: BPR

{"columns": ["molecular_string", "Kp at 6 h"],
 "data": [
  ["O=C1NN=C(c2ccc(OC3CCN(C4CCC4)CC3)cc2)[C@H]2C[C@@H]12", 5.1]
]}

###

- method: AUC in dog at 3 mg/kg, po
- Type: ADME, organism-based, Canis lupus familiaris
- Parameters: dose 3 mg/kg, route oral
- study_conditions: plasma

{"columns": ["molecular_string", "AUC / ng·h/mL"],
 "data": [
  ["O=C1NN=C(c2ccc(OC3CCN(C4CCC4)CC3)cc2)[C@H]2C[C@@H]12", 2960]
]}

###

- target_under_test: Voltage-gated inwardly rectifying potassium channel KCNH2 (Homo sapiens, UniProt Q12809)
- Sequence (Q12809 whole entry): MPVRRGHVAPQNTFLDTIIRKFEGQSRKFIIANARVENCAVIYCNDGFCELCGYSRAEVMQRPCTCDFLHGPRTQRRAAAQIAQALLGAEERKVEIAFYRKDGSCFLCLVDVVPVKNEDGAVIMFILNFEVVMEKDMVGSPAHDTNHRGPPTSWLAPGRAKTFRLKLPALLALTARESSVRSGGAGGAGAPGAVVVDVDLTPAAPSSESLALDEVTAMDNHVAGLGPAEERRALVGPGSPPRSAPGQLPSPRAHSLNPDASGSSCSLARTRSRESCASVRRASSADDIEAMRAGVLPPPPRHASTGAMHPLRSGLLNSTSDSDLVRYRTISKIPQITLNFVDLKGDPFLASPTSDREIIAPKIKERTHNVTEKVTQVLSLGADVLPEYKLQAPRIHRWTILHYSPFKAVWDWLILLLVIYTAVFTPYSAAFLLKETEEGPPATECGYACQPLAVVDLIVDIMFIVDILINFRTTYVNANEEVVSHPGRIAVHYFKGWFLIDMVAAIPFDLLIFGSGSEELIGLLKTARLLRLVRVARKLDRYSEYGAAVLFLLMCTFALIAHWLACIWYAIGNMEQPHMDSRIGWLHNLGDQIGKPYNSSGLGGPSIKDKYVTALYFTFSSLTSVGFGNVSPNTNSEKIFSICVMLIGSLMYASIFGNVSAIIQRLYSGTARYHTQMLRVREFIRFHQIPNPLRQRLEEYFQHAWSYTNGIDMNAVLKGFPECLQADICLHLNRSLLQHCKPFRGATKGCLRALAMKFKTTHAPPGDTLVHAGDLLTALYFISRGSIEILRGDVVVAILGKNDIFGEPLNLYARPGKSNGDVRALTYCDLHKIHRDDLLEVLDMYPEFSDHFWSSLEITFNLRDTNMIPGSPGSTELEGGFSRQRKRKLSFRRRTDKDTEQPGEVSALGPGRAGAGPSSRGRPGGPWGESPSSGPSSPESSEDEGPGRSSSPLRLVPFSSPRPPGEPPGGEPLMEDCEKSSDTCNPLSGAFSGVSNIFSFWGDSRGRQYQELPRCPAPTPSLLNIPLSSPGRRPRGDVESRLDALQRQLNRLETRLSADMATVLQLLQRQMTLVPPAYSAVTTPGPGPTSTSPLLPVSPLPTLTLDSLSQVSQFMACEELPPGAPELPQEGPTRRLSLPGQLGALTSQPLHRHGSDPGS
- method: Inhibition of human ERG channel by patch clamp technique
pIC50: −log10 of the molar value.

{"columns": ["molecular_string", "pIC50"],
 "data": [
  ["O=C1NN=C(c2ccc(OC3CCN(C4CCC4)CC3)cc2)[C@H]2C[C@@H]12", 4.85],
  ["O=C1NN=C(c2ccc(OC3CCN(C4CCC4)CC3)cc2)[C@@H]2C[C@H]12", 5.22]
]}

###

- method: Clearance in monkey at 1 mg/kg, iv
- Type: ADME, organism-based, Macaca mulatta
- Parameters: dose 1 mg/kg, route intravenous
- study_conditions: rhesus monkey, in vivo

{"columns": ["molecular_string", "clearance, L/h/kg"],
 "data": [
  ["O=C1NN=C(c2ccc(OC3CCN(C4CCC4)CC3)cc2)[C@H]2C[C@@H]12", 0.48]
]}

###

- target_under_test: UniProtKB Q9QYN8
- Sequence (Q9QYN8 whole entry): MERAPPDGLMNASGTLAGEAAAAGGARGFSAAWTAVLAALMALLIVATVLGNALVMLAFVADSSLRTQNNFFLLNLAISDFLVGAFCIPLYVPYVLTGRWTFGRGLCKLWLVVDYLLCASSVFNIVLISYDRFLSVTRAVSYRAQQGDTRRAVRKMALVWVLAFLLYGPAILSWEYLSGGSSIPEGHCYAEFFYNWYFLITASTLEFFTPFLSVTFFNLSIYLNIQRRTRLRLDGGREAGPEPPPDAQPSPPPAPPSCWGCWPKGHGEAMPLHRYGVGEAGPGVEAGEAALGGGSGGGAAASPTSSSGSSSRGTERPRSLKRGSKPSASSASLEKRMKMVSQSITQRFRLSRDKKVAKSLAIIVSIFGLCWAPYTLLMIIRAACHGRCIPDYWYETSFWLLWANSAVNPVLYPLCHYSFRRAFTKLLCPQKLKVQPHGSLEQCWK
- method: Displacement of [3H]NAMH from rat histamine H3 receptor transfected in CHO cells
pKi: −log10 of the molar value.
Assign 1 to entries whose pKi meets or exceeds 8; assign -1 to the rest.

{"columns": ["compound", "category_label"],
 "data": [
  ["CN1N=C(c2ccc(OC3CCN(C4CCCC4)CC3)cc2)C2CC2C1=O (racemic)", 1],
  ["CCN1CCC(Oc2ccc(C3=NNC(=O)C4CC34)cc2)CC1 (racemic)", -1],
  ["CC(C)N1N=C(c2ccc(OC3CCN(C4CCC4)CC3)cc2)C2CC2C1=O (racemic)", 1],
  ["CC(C)N1CCC(Oc2ccc(C3=NNC(=O)C4CC34)cc2)CC1 (racemic)", -1]
]}

###

- method: Oral bioavailability in dog at 3 mg/kg
- Assay type: ADME, organism-based, Canis lupus familiaris
- study_conditions: in vivo

{"columns": ["molecular_string", "bioavailability"],
 "data": [
  ["O=C1NN=C(c2ccc(OC3CCN(C4CCC4)CC3)cc2)[C@H]2C[C@@H]12", "94%"]
]}

###

- method: Apparent permeability across human Caco2 cells
- Type: ADME, cell-based
- study_conditions: Caco-2
measure: Papp (×10⁻⁶ cm/s)

{"columns": ["molecular_string", "unit_string", "reading"],
 "data": [
  ["O=C1NN=C(c2ccc(OC3CCN(C4CCC4)CC3)cc2)[C@H]2C[C@@H]12", "×10⁻⁶ cm/s", 16.4]
]}

###

- method: Half life in dog liver microsomes
- Format: ADME, Canis lupus familiaris
# key: entry, value: half-life
measure: half-life

{"columns": ["molecular_string", "reading"],
 "data": [
  ["O=C1NN=C(c2ccc(OC3CCN(C4CCC4)CC3)cc2)[C@@H]2C[C@H]12", "> 40 min"],
  ["O=C1NN=C(c2ccc(OC3CCN(C4CCC4)CC3)cc2)[C@H]2C[C@@H]12", "> 40 min"]
]}

###

- Organism: Homo sapiens
- method: Selectivity ratio for human histamine H3 receptor over human histamine H4 receptor

{"columns": ["compound", "Selectivity ratio"],
 "data": [
  ["CCN1N=C(c2ccc(OC3CCN(C4CCC4)CC3)cc2)C2CC2C1=O (racemic)", "> 1000"],
  ["CN1N=C(c2ccc(OC3CCN(C4CCCC4)CC3)cc2)C2CC2C1=O (racemic)", "> 1000"],
  ["CC(C)N1CCC(Oc2ccc(C3=NNC(=O)C4CC34)cc2)CC1 (racemic)", "> 1000"]
]}

###

- method: Volume of distribution at steady state in monkey at 1 mg/kg, iv
- Format: ADME, organism-based, Macaca mulatta
- Parameters: dose 1 mg/kg, route intravenous
- study_conditions: rhesus monkey, in vivo, read-out: Vdss

{"columns": ["molecular_string", "Vd"],
 "data": [
  ["O=C1NN=C(c2ccc(OC3CCN(C4CCC4)CC3)cc2)[C@H]2C[C@@H]12", "6 L/kg"]
]}

###

Items are presented alongside their recorded half-life.
- method: Terminal half life in rat at 1 mg/kg, iv
- Type: ADME, organism-based
- Parameters: dose 1 mg/kg, route intravenous
- study_conditions: in vivo, read-out: beta t1/2 (converted)

{"columns": ["molecular_string", "half-life (h)"],
 "data": [
  ["O=C1NN=C(c2ccc(OC3CCN(C4CCC4)CC3)cc2)[C@H]2C[C@@H]12", 2.6],
  ["O=C1NN=C(c2ccc(OC3CCN(C4CCC4)CC3)cc2)[C@@H]2C[C@H]12", 1.6]
]}

###

- method: Oral bioavailability in monkey at 3 mg/kg
- Type: ADME, organism-based, Macaca mulatta
- study_conditions: rhesus monkey, in vivo
measure: bioavailability (%)

{"columns": ["molecular_string", "unit_string", "reading"],
 "data": [
  ["O=C1NN=C(c2ccc(OC3CCN(C4CCC4)CC3)cc2)[C@H]2C[C@@H]12", "%", 114]
]}

###

- method: Half life in mouse liver microsomes
- Format: ADME, Microsome
Listed next: entries and their corresponding half-life.

{"columns": ["molecular_string", "half-life"],
 "data": [
  ["O=C1NN=C(c2ccc(OC3CCN(C4CCC4)CC3)cc2)[C@H]2C[C@@H]12", "> 40 min"],
  ["O=C1NN=C(c2ccc(OC3CCN(C4CCC4)CC3)cc2)[C@@H]2C[C@H]12", "> 40 min"]
]}

###

- method: AUC in rat at 5 mg/kg, po
- Assay type: ADME, organism-based, Plasma
- Parameters: dose 5 mg/kg, route oral
- study_conditions: plasma
measure: AUC (ng·h/mL)

{"columns": ["molecular_string", "unit_string", "reading"],
 "data": [
  ["O=C1NN=C(c2ccc(OC3CCN(C4CCC4)CC3)cc2)[C@H]2C[C@@H]12", "ng·h/mL", 8320]
]}

###

- target_under_test: Cytochrome P450 3A4 (Homo sapiens, UniProt P08684)
- Sequence (P08684 whole entry): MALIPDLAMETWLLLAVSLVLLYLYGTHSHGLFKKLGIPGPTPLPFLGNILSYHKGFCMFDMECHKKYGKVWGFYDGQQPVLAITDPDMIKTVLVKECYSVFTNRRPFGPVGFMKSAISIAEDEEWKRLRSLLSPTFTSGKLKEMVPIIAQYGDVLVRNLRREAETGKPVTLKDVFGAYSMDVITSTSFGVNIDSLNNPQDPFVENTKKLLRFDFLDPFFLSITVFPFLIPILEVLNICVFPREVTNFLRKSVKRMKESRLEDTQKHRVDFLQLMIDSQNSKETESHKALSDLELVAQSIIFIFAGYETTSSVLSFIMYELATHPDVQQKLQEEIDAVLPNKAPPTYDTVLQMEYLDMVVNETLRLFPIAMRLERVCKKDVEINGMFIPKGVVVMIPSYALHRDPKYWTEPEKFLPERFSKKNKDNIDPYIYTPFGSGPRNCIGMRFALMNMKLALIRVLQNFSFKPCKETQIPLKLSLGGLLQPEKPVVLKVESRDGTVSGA
pIC50: −log10 of the molar value.
measure: pIC50

{"columns": ["molecular_string", "target_under_test", "measure", "reading"],
 "data": [
  ["O=C1NN=C(c2ccc(OC3CCN(C4CCC4)CC3)cc2)[C@@H]2C[C@H]12", "Cytochrome P450 3A4 (Homo sapiens, UniProt P08684)", "pIC50", "< 4.52"]
]}

###

- method: Solubility of the compound in water at pH 2
- Type: physicochemical
measure: solubility

{"columns": ["molecular_string", "reading"],
 "data": [
  ["O=C1NN=C(c2ccc(OC3CCN(C4CCC4)CC3)cc2)[C@H]2C[C@@H]12", "> 1000 µg/mL"]
]}

###

- target_under_test: Histamine H3 receptor (Homo sapiens)
- Sequence (Q9Y5N1 whole entry): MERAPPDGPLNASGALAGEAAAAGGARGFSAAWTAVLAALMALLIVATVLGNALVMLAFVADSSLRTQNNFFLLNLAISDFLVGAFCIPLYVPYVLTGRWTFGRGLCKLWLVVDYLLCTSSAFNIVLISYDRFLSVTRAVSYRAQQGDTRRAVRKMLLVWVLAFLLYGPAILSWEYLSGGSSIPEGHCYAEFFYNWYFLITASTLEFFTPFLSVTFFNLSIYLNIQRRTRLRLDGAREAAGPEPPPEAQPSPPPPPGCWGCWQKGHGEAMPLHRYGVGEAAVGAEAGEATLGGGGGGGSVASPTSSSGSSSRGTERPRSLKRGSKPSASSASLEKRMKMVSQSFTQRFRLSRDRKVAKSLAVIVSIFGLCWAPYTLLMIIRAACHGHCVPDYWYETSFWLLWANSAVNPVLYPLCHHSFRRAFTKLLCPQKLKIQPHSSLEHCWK
- method: Displacement of [3H]NAMH from human histamine H3 receptor transfected in CHO cells
Rule for this label: MET means Ki is less than 4 nM; NOT MET means Ki is at least 4 nM.

{"columns": ["compound", "category_label"],
 "data": [
  ["CN1N=C(c2ccc(OC3CCN(C4CCCC4)CC3)cc2)C2CC2C1=O (racemic)", "MET"],
  ["O=C1C2CC2C(c2ccc(OC3CCN(C4CCC4)CC3)cc2)=NN1c1ccc(F)cc1 (racemic)", "MET"],
  ["CCN1N=C(c2ccc(OC3CCN(C4CCC4)CC3)cc2)C2CC2C1=O (racemic)", "NOT MET"],
  ["O=C1NN=C(c2ccc(OC3CCN(C4CCC4)CC3)cc2)[C@H]2C[C@@H]12", "MET"],
  ["CC(C)N1CCC(Oc2ccc(C3=NNC(=O)C4CC34)cc2)CC1 (racemic)", "NOT MET"],
  ["O=C1NN=C(c2ccc(OC3CCN(C4CCC4)CC3)cc2)[C@@H]2C[C@H]12", "NOT MET"],
  ["CC(C)N1N=C(c2ccc(OC3CCN(C4CCC4)CC3)cc2)C2CC2C1=O (racemic)", "NOT MET"],
  ["O=C1NN=C(c2ccc(OC3CCN(C4CCC4)CC3)cc2)C2CC12 (racemic)", "NOT MET"],
  ["O=C1NN=C(c2ccc(OC3CCN(C4CCCC4)CC3)cc2)C2CC12 (racemic)", "MET"],
  ["CCN1CCC(Oc2ccc(C3=NNC(=O)C4CC34)cc2)CC1 (racemic)", "NOT MET"]
]}
